molecular target: monkey NPR1 (Macaca fascicularis); test: Cellular cGMP production assay, monkey NPR1 expressing CHO-K1 cells (CisBio HTRF); assay type: cell-based; conditions: maximum cGMP production as percentage of the maximum cGMP produced with ANP, monkey NPR1 CHO-K1 cells
Sequence (A0A7N9DBT9 entry or part of it): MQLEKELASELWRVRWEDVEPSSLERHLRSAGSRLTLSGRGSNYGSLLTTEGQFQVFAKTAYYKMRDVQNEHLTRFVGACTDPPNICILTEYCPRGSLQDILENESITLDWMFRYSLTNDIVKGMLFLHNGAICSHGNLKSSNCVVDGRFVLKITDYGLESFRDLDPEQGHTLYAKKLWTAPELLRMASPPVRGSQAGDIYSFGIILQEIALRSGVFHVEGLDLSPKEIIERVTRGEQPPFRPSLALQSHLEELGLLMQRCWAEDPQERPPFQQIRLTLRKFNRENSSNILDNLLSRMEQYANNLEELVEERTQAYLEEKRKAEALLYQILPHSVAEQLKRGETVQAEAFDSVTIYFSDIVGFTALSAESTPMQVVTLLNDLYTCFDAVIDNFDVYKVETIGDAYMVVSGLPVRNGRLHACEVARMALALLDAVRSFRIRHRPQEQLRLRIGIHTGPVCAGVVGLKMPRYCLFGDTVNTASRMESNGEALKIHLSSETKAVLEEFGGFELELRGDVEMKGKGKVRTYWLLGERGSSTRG
value_type: Monkey NPR1 Amax (% of ANP)

- CC[C@H]([C@H]1CC[C@H](C(=O)O)CC1)N(C)c1nc2c(c(N[C@@H](CN3C4CCCC3CC4)c3cnn(C)c3)n1)C[C@H](c1ccc(F)cc1)CC2: 100.914 % of ANP
- CC[C@H]([C@H]1CC[C@H](C(=O)O)CC1)N(C)c1nc2c(c(N[C@@H](CN3C4CCCC3CC(O)C4)c3cnn(CC)c3)n1)C[C@H](c1cccc(F)c1)CC2 (some centres unmarked): 104.610 % of ANP
- CC[C@H]([C@H]1CC[C@H](C(=O)O)CC1)N(C)c1nc2c(c(N[C@@H](CN3C4CCCC3CC4)c3cnc(C)s3)n1)C[C@H](c1cccc(F)c1)CC2: 100.863 % of ANP
- CC[C@H]([C@H]1CC[C@H](C(=O)O)CC1)N(C)c1nc2c(c(N[C@@H](CN3C4CCCC3CCC4)c3cnn(CC)c3)n1)C[C@H](c1ccccc1)CC2: 99.824 % of ANP
- CC[C@@H](N(C)c1nc2c(c(N[C@@H](CN3CCC[C@H](C)C3)c3cc(C)nn3C)n1)C[C@H](c1ccccc1)CC2)C12CC(C(=O)O)(C1)C2: 96.883 % of ANP
- CN(c1nc2c(c(N[C@@H](CN3C4CCCC3CCC4)c3cnn(C)c3)n1)C[C@H](c1ccccc1)CC2)[C@H](C1CC1)[C@H]1CC[C@H](C(=O)O)CC1: 99.809 % of ANP
- CC[C@H]([C@H]1CC[C@H](C(=O)O)CC1)N(C)c1nc2c(c(N[C@@H](CN3CCC[C@H](CF)C3)c3cnn(C)c3)n1)C[C@H](c1ccccc1)CC2: 100.104 % of ANP
- CC[C@@H](N(C)c1nc2c(c(N[C@@H](CN3C4CCCC3CCC4)c3cnn(C)c3)n1)C[C@H](c1ccc(F)cc1)CC2)C12CC(C(=O)O)(C1)C2: 113.853 % of ANP
- CC[C@H]([C@H]1CC[C@H](C(=O)O)CC1)N(C)c1nc2c(c(N[C@@H](CN3CCC[C@H](OC)C3)c3cnn(C)c3)n1)C[C@H](c1ccccc1)CC2: 96.371 % of ANP
- CC[C@H]([C@H]1CC[C@H](C(=O)O)CC1)N(C)c1nc2c(c(N[C@@H](CN3CC4CCC3C4)c3ccccc3)n1)C[C@H](c1ccccc1)CC2 (some centres unmarked): 96.754 % of ANP
- CC[C@H]([C@H]1CC[C@](F)(C(=O)O)CC1)N(C)c1nc2c(c(N[C@H](CN3CCC[C@H](C)C3)c3cnn(C)c3)n1)C[C@H](c1ccccc1)CC2: 106.556 % of ANP
